FYI, the data here is from ChEMBL document CHEMBL1122468.

Test system: Rattus norvegicus
METHOD_DESCRIPTION: In vivo measure of dopaminergic activity by the induction of contralateral turning behavior in 6-hydroxydopamine (6-OHDA) lesioned rats, ip
Assay type: functional
TEST_CONDITIONS: Rattus norvegicus, ip; read-out: ED50
MEASURED_ENDPOINT: ED50 (mg/kg)
The response must be a number in mg/kg with no trailing unit.

Consider the worked cases shown below.
[
  {
    "SMILES_DATA": "CC(C)C[C@H]1C(=O)N2CCC[C@H]2[C@]2(O)O[C@](NC(=O)[C@@H]3C=C4c5cccc6[nH]c(Br)c(c56)C[C@H]4N(C)C3)(C(C)C)C(=O)N12",
    "UNIT": "mg/kg",
    "ED50": 2.8
  },
  {
    "SMILES_DATA": "c1cc2c3c(c[nH]c3c1)C[C@H]1NCCO[C@H]21",
    "UNIT": "mg/kg",
    "ED50": 0.76
  },
  {
    "SMILES_DATA": "CCCCN1CCO[C@@H]2c3cccc4[nH]cc(c34)C[C@H]21",
    "UNIT": "mg/kg",
    "ED50": 1.1
  }
]

Next:
Req: State the recorded ED50 for this entry: "CN1CCO[C@@H]2c3cccc4[nH]cc(c34)C[C@H]21"
Resp: 0.18

----------
SYSTEM_UNDER_TEST: Dopamine receptor
METHOD_DESCRIPTION: In vitro affinity for dopamine receptor by displacement of [3H]- apomorphine in rat striatal membranes
Format: cell membranes, Membrane
MEASURED_ENDPOINT: IC50 (nM)
The response must be a number in nM with no trailing unit.

[
  {
    "COMPOUND": "c1cc2c3c(c[nH]c3c1)C[C@H]1NCCO[C@H]21",
    "UNIT": "nM",
    "IC50": 59.6
  }
]

Req: State the recorded IC50 for this entry: "CCCCN1CCO[C@@H]2c3cccc4[nH]cc(c34)C[C@H]21"
Resp: 33

Req: State the recorded IC50 for this entry: CCN1CCO[C@@H]2c3cccc4[nH]cc(c34)C[C@H]21 (relative stereo)
Resp: 1240

Req: State the recorded IC50 for this entry: "CN1CCO[C@@H]2c3cccc4[nH]cc(c34)C[C@H]21"
Resp: 28.9

Req: State the recorded IC50 for this entry: "C=CCN1CCO[C@@H]2c3cccc4[nH]cc(c34)C[C@H]21"
Resp: 23

----------
SYSTEM_UNDER_TEST: Dopamine receptor
METHOD_DESCRIPTION: In vitro affinity for dopamine receptor by displacement of [3H]- apomorphine in rat striatal membranes
Format: cell membranes, Membrane
The following compounds are listed with their measured IC50 values.
The response must be a number in nM with no trailing unit.

Consider the worked cases shown below.
[
  {
    "COMPOUND": "CCCN1CCO[C@@H]2c3cccc4[nH]cc(c34)C[C@H]21",
    "SYSTEM_UNDER_TEST": "Dopamine receptor",
    "IC50 / nM": 2.2
  },
  {
    "COMPOUND": "CCN1CCO[C@@H]2c3cccc4[nH]cc(c34)C[C@H]21 (stereo in doubt; 6b)",
    "SYSTEM_UNDER_TEST": "Dopamine receptor",
    "IC50 / nM": 4.65
  },
  {
    "COMPOUND": "CCN1CCO[C@@H]2c3cccc4[nH]cc(c34)C[C@H]21 (stereo in doubt; (-)6b)",
    "SYSTEM_UNDER_TEST": "Dopamine receptor",
    "IC50 / nM": 2
  }
]

Next:
Req: For Dopamine receptor, provide IC50 of CCN1CCO[C@@H]2c3cccc4[nH]cc(c34)C[C@H]21 (stereo in doubt; (+)6b) please.
Resp: 219
